# Tested on: OVCAR3 cells
# experimental details: MTT proliferation assay, OVCAR3;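 note: compound given as an 8- or 10-point series, one day after plating, with exposure covering roughly 3-4 cell doublings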
# Type: cell-based
# run conditions: 5 days compound exposure, 1:3 serial dilution starting at 10 μM
*1 amine or outer side, *2 acyl side, *3 side chain or, on linkers, in order; H or OH if unused. Where a SMILES comes first, the peptide text is derived from it. Bridges are numbered along the chain shown (N, C = ends). [ ]: non-standard residue; d: D form. The star is where a group is joined. X185 = CN([C@@H](Cc1cc(Cl)ccc1-c1ccc(N2CCOC(C)(C)C2)cc1)C(=O)[*:2])[*:1]; NMeAla(5-Cl-2-cPrO-3-pyridyl) = CN[C@@H](Cc1cc(Cl)cnc1OC1CC1)C(=O)O; X81 = COc1cc(N2CCOCC2)ccc1-c1ccc(Cl)cc1C[C@@H](C(=O)[*:2])N(C)[*:1]; NMehhhLys(Me) = CN([C@@H](CCCCCCCN(C)[*:3])C(=O)[*:2])[*:1]; X5 = CN([C@@H](Cc1cc(Cl)ccc1-c1cnn2c1OCCC2)C(=O)[*:2])[*:1]; X159 = CN([C@@H](Cc1cc(Cl)cnc1Oc1cnn(C)c1)C(=O)[*:2])[*:1]; X22 = CN([C@@H](Cc1cc(Cl)ccc1-c1cnn(C)c1)C(=O)[*:2])[*:1]; X204 = CN([C@@H](Cc1cc(F)ccc1-c1ccnnc1)C(=O)[*:2])[*:1]; X66 = CN([C@@H](Cc1cc(Cl)ccc1-c1cccnc1)C(=O)[*:2])[*:1]; NMe(hhhLys) = CN([C@@H](CCCCCCCN[*:3])C(=O)[*:2])[*:1]; Cyclobutanecarbonyl(1-CF3) = O=C(C1(C(F)(F)F)CCC1)*; Cyclopropanecarbonyl(1-CF3) = O=C(C1(C(F)(F)F)CC1)*; cBuCO(3,3-F2-1-CF3) = O=C(C1(C(F)(F)F)CC(F)(F)C1)*; NMePhe(2,5-Cl2) = CN[C@@H](Cc1cc(Cl)ccc1Cl)C(=O)O; Pro(trans-4-F) = O=C(O)[C@@H]1C[C@@H](F)CN1; Gly(cPr) = N[C@H](C(=O)O)C1CC1
Entries and their GI50
Report the figure in nM without appending any unit label.

molecule="CC(C)C[C@@H]1NC(=O)[C@@H](N(C)C(=O)[C@@H](NC(=O)[C@@H]2C[C@@H](F)CN2C(=O)C2(C(F)(F)F)CC(F)(F)C2)C2CC2)CCCCCCCN(C)C(=O)[C@H](Cc2cc(Cl)cnc2Oc2cnn(C)c2)N(C)C1=O [Example 323] ({cBuCO(3,3-F2-1-CF3)}-[Pro(trans-4-F)][Gly(cPr)][NMehhhLys(Me)]L[X159]; lactam 3-C)" measured_property=GI50 experimental_result=10
molecule=CC(C)C[C@@H]1NC(=O)[C@@H](N(C)C(=O)[C@@H](NC(=O)[C@@H]2C[C@@H](F)CN2C(=O)C2(C(F)(F)F)CCC2)C2CC2)CC=CCCCCNC(=O)[C@H](Cc2cc(Cl)ccc2-c2cnn(CCO)c2)N(C)C1=O measured_property=GI50 experimental_result=170
molecule="CC(C)C[C@@H]1NC(=O)[C@@H](N(C)C(=O)[C@@H](NC(=O)[C@@H]2C[C@@H](F)CN2C(=O)C2(C(F)(F)F)CCC2)C2CC2)CCCCCCCN(C)C(=O)[C@H](Cc2cc(Cl)cnc2OC2CC2)N(C)C1=O [Example 109] ({Cyclobutanecarbonyl(1-CF3)}-[Pro(trans-4-F)][Gly(cPr)][NMehhhLys(Me)]L[NMeAla(5-Cl-2-cPrO-3-pyridyl)]; lactam 3-C)" measured_property=GI50 experimental_result=20
molecule="CC(C)C[C@@H]1NC(=O)[C@@H](N(C)C(=O)[C@@H](NC(=O)[C@@H]2C[C@@H](F)CN2C(=O)C2(C(F)(F)F)CC(F)(F)C2)C2CC2)CCCCCCCN(C)C(=O)[C@H](Cc2cc(Cl)ccc2-c2ccc(N3CCOC(C)(C)C3)cc2)N(C)C1=O [Example 366] ({cBuCO(3,3-F2-1-CF3)}-[Pro(trans-4-F)][Gly(cPr)][NMehhhLys(Me)]L[X185]; lactam 3-C)" measured_property=GI50 experimental_result=20
molecule="CC(C)C[C@@H]1NC(=O)[C@@H](N(C)C(=O)[C@@H](NC(=O)[C@@H]2C[C@@H](F)CN2C(=O)C2(C(F)(F)F)CCC2)C2CC2)CC=CCCCCNC(=O)[C@H](Cc2cc(Cl)ccc2Oc2ncccn2)N(C)C1=O (single isomer, unassigned) [Example 156-P2]" measured_property=GI50 experimental_result=100

Query: # query: GI50 of entry CC(C)C[C@@H]1NC(=O)[C@@H](N(C)C(=O)[C@@H](NC(=O)[C@@H]2C[C@@H](F)CN2C(=O)C2(C(F)(F)F)CC(F)(F)C2)C2CC2)CCCCCCCN(C)C(=O)[C@H](Cc2cc(Cl)ccc2-c2cnn3c2OCCC3)N(C)C1=O [Example 191] ({cBuCO(3,3-F2-1-CF3)}-[Pro(trans-4-F)][Gly(cPr)][NMehhhLys(Me)]L[X5]; lactam 3-C)
Reply: 10

Query: Bench note: what GI50 did CC(C)C[C@@H]1NC(=O)[C@@H](N(C)C(=O)[C@@H](NC(=O)[C@@H]2C[C@@H](F)CN2C(=O)C2(C(F)(F)F)CC2)C2CC2)CCCCCCCNC(=O)[C@H](Cc2cc(Cl)ccc2Cl)N(C)C1=O [Example 9] ({Cyclopropanecarbonyl(1-CF3)}-[Pro(trans-4-F)][Gly(cPr)][NMe(hhhLys)]L[NMePhe(2,5-Cl2)]; lactam 3-C) show?
Reply: 110

Query: Suppose we examine the molecule COc1cc(N2CCOCC2)ccc1-c1ccc(Cl)cc1C[C@H]1C(=O)N(C)CCCCCCC[C@H](N(C)C(=O)[C@@H](NC(=O)[C@@H]2C[C@@H](F)CN2C(=O)C2(C(F)(F)F)CC(F)(F)C2)C2CC2)C(=O)N[C@@H](CC(C)C)C(=O)N1C [Example 361] ({cBuCO(3,3-F2-1-CF3)}-[Pro(trans-4-F)][Gly(cPr)][NMehhhLys(Me)]L[X81]; lactam 3-C) ; what GI50 value has been reported?
Reply: 10

Query: Endpoint output: GI50 of CC(C)C[C@@H]1NC(=O)[C@@H](N(C)C(=O)[C@@H](NC(=O)[C@@H]2C[C@@H](F)CN2C(=O)C2(C(F)(F)F)CC(F)(F)C2)C2CC2)CCCCCCCNC(=O)[C@H](Cc2cc(Cl)ccc2-c2cccnc2)N(C)C1=O [Example 276] ({cBuCO(3,3-F2-1-CF3)}-[Pro(trans-4-F)][Gly(cPr)][NMe(hhhLys)]L[X66]; lactam 3-C) . Value?
Reply: 20

Query: # get_value(readout='GI50', item= CC(C)C[C@@H]1NC(=O)[C@@H](N(C)C(=O)[C@@H](NC(=O)[C@@H]2C[C@@H](F)CN2C(=O)C2(C(F)(F)F)CC(F)(F)C2)C2CC2)CCCCCCCNC(=O)[C@H](Cc2cc(F)ccc2-c2ccnnc2)N(C)C1=O [Example 290] ({cBuCO(3,3-F2-1-CF3)}-[Pro(trans-4-F)][Gly(cPr)][NMe(hhhLys)]L[X204]; lactam 3-C) )
Reply: 150

Query: Using the record for CC(C)C[C@@H]1NC(=O)[C@@H](N(C)C(=O)[C@@H](NC(=O)[C@@H]2C[C@@H](F)CN2C(=O)C2(C(F)(F)F)CC(F)(F)C2)C2CC2)CC=CCCCCNC(=O)[C@H](Cc2cc(Cl)cnc2OC2CC2)N(C)C1=O (single isomer, unassigned) [Example 102-P1] , report its GI50.
Reply: 810

Query: I have this molecule here, CC(C)C[C@@H]1NC(=O)[C@@H](N(C)C(=O)[C@@H](NC(=O)[C@@H]2C[C@@H](F)CN2C(=O)C2(C(F)(F)F)CCC2)C2CC2)CCCCCCCNC(=O)[C@H](Cc2cc(Cl)ccc2-c2cnn(C)c2)N(C)C1=O [Example 70] ({Cyclobutanecarbonyl(1-CF3)}-[Pro(trans-4-F)][Gly(cPr)][NMe(hhhLys)]L[X22]; lactam 3-C) , and I need its recorded GI50.
Reply: 10
